- Test Settings: 313.15 K; 100 kPa
Value Type: viscosity (mPa·s)
Numbers only here, please. The scale is mPa·s.

# annotated cases, reported viscosity shown
[[record]]
molecule = "O=[N+]([O-])c1ccccc1"
value_type = "viscosity"
test_result = 1.501

[[record]]
molecule = "CCn1cc[n+](CCOC)c1.O=S(=O)([N-]S(=O)(=O)C(F)(F)F)C(F)(F)F"
value_type = "viscosity"
test_result = 20.86

[[record]]
molecule = "CCCCCCCCCCCCCC"
value_type = "viscosity"
test_result = 1.612

[[record]]
molecule = "c1ccccc1"
value_type = "viscosity"
test_result = 0.491

[[record]]
molecule = "C1CCC2CCCCC2C1 (stereo unspecified)"
value_type = "viscosity"
test_result = 1.741


Turning now to a further molecule:
Entry CCCCCCCCCCCCCC[P+](CCCCCC)(CCCCCC)CCCCCC.N#C[N-]C#N : reported viscosity = ?
196

----------
- Experimental Protocol: xn = mol fraction of the nth substance listed
- Test Settings: 298.15 K; 101 kPa; x2 = 0.2
Value Type: viscosity (mPa·s)
Numbers only here, please. The scale is mPa·s.

# annotated cases, reported viscosity shown
[[record]]
molecule = "C=C(C)C(=O)O + O=C1CCCCC1"
test_result = 1.528

[[record]]
molecule = "O=[N+]([O-])c1ccccc1 + CS(C)=O"
test_result = 1.877

[[record]]
molecule = "CN(C)C=O + CO"
test_result = 0.758


Turning now to a further molecule:
Entry CN(C)C=O + CCO : reported viscosity = ?
0.818

----------
- Test Settings: 303.15 K; 101 kPa
± gives the uncertainty stated by the source.
Value Type: viscosity
For clarity, give the value followed by its unit.

# annotated cases, reported viscosity shown
[[record]]
molecule = "C1CCC2CCCCC2C1 (centres undefined)"
test_result = "2.026 ± 0.043 mPa·s"

[[record]]
molecule = "CCCCCCCCCCCCCC[P+](CCCCCC)(CCCCCC)CCCCCC.N#C[N-]C#N"
test_result = "328 ± 16 mPa·s"

[[record]]
molecule = "COCC(C)O (centres undefined)"
test_result = "1.3 ± 0.13 mPa·s"


Turning now to a further molecule:
Entry CCCCCCCC : reported viscosity = ?
0.482 ± 0.009 mPa·s

----------
Listed here are compounds together with their documented viscosity.
- Test Settings: 318.15 K; 101.33 kPa
Numbers only here, please. The scale is mPa·s.

[[record]]
compound_structure_string = "CCCCCCCC"
value_type = "viscosity"
test_result = 0.403

[[record]]
compound_structure_string = "CN(C)C=O"
value_type = "viscosity"
test_result = 0.67

[[record]]
compound_structure_string = "CCCCCCC"
value_type = "viscosity"
test_result = 0.317


Turning now to a further compound:
Entry CCCCCCCCCCCCCC : reported viscosity = ?
1.356

----------
- Test Settings: 298.15 K; 100 kPa
Value Type: log10 of viscosity (log10 of the value in mPa·s)
Hi team, quick reminder: these entries are log10 of viscosity (mPa·s).

# annotated cases, reported log10 of viscosity shown
[[record]]
compound = "c1ccccc1"
test_result = -0.21

[[record]]
compound = "O=[N+]([O-])c1ccccc1"
test_result = 0.28

[[record]]
compound = "C1CCC2CCCCC2C1 (configuration not stated)"
test_result = 0.36

[[record]]
compound = "CCCCCCCCCCCCCC[P+](CCCCCC)(CCCCCC)CCCCCC.N#C[N-]C#N"
test_result = 2.65


Entry CCCCCCC : reported log10 of viscosity = ?
-0.45

Entry CCCCCCCCCCCCCC : reported log10 of viscosity = ?
0.33

Entry CCn1cc[n+](CCOC)c1.O=S(=O)([N-]S(=O)(=O)C(F)(F)F)C(F)(F)F : reported log10 of viscosity = ?
1.55
